Recorded GI50 for the following compounds
- Test system: HS 578T breast
- test_description: NCI tumour cell line growth inhibition, 48 h

[
  {
    "compound": "CC(=O)C1=C(C)N(Cc2ccccc2)C2(O)C=CC(=O)C3=C(O)c4ccccc4C(=O)C312 (stereo not given)",
    "GI50": "18.5 µM"
  }
]

**Query** Which GI50 reading was recorded for the compound `COc1c(C(N)=O)cc(-c2ccc(Cl)cc2)cc1-c1ccc(S(N)(=O)=O)cc1` ?
**Result** 14.4 µM

**Query** // lookup GI50 for CN1C(=O)N(C)C2C1NC(=S)N2/N=C/C=C/c1ccccc1[N+](=O)[O-] (stereo not given)
**Result** 0.646 µM

**Query** Any idea what GI50 was measured for `Cc1[nH]nc(C(F)(F)F)c1Cc1sc2c(c1C(=O)N1C[C@](C)(O)CO1)c(=O)n(C)c(=O)n2C(C)C` ?
**Result** > 100 µM

**Query** Need GI50, item CCCCCCCCN(CCCCCCCC)CC(O)c1cc(-c2ccccc2)nc2ccc(OC)cc12 (stereo not given)
**Result** > 100 µM
